biological target: hCA XII (Homo sapiens); assay: stopped flow CO2 hydrase assay, hCA XII; assay type: biochemical; details: Log KI hCA XII (experimental), log of KI in nM; compounds of this paper
Sequence (O43570 25-354): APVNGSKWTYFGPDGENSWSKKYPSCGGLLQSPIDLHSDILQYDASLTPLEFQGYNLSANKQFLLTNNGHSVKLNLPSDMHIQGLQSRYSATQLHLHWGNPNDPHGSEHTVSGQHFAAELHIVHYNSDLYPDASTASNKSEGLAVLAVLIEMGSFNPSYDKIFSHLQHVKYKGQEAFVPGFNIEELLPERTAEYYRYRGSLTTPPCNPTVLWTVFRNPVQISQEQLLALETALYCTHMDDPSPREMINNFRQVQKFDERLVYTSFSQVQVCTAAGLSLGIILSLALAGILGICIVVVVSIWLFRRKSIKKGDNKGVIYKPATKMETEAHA
RECORDED ENDPOINT: Ki (nM)

Check out these entries, answers already filled in.
# COMPOUND, Ki (nM)
measured = [
    ("NS(=O)(=O)c1ccc(NCC(=O)NN=C2C(=O)N(CC(=O)Nc3ccccc3Cl)c3ccccc32)cc1 [4f]", 753),
    ("NS(=O)(=O)c1ccc(NCC(=O)NN=C2C(=O)N(CC(=O)Nc3ccc(Cl)cc3)c3ccccc32)cc1 [4b]", 5050),
    ("NS(=O)(=O)c1ccc(NCC(=O)NN=C2C(=O)N(CC(=O)Nc3ccccc3Br)c3ccccc32)cc1 [4g]", 843),
    ("Cc1ccc(NC(=O)CN2C(=O)C(=NNc3ccc(S(N)(=O)=O)cc3)c3ccccc32)cc1 [3d]", 710),
]

(1) NS(=O)(=O)c1ccc(NC(=O)CN2C(=O)C(=O)c3ccccc32)cc1 [2h]
(2) NS(=O)(=O)c1ccc(NN=C2C(=O)N(CC(=O)Nc3ccc(Br)cc3)c3ccccc32)cc1 [3c]
(3) NS(=O)(=O)c1ccc(NN=C2C(=O)N(CC(=O)Nc3ccccc3)c3ccccc32)cc1 [3a]
Would you mind ranking these compounds by ascending Ki? Reply format: the labels, ordered as requested.
1, 2, 3

---

target: UniProt O43570; experiment: stopped flow CO2 hydrase assay, hCA XII; format: biochemical; details: KI hCA I / KI hCA XII
RECORDED ENDPOINT: Selectivity ratio I/XII

In the examples that follow, each entry is paired with its recorded Selectivity ratio I/XII.
# MOLECULE, TARGET OF ASSAY, Selectivity ratio I/XII
records = [
    ("NS(=O)(=O)c1ccc(NCC(=O)NN=C2C(=O)N(CC(=O)Nc3ccc(Cl)cc3)c3ccccc32)cc1 [4b]", "UniProt O43570", 1.670),
    ("NS(=O)(=O)c1ccc(NCC(=O)NN=C2C(=O)N(CC(=O)Nc3ccccc3)c3ccccc32)cc1 [4a]", "UniProt O43570", 0.683),
    ("NS(=O)(=O)c1ccc(NN=C2C(=O)N(CC(=O)Nc3ccc(Br)cc3)c3ccccc32)cc1 [3c]", "UniProt O43570", 1.245),
]

(P) NS(=O)(=O)c1ccc(NCC(=O)NN=C2C(=O)N(CC(=O)Nc3ccccc3Br)c3ccccc32)cc1 [4g]
(Q) NS(=O)(=O)c1ccc(NN=C2C(=O)N(CC(=O)Nc3ccc(Cl)cc3)c3ccccc32)cc1 [3b]
(R) NS(=O)(=O)c1ccc(NN=C2C(=O)N(CC(=O)Nc3ccccc3)c3ccccc32)cc1 [3a]
Hey, can you sort those molecules up there by Selectivity ratio I/XII, smallest first? Please express your ranking as an ordered list of the labels.
R, Q, P

(P) Cc1ccc(NC(=O)CN2C(=O)C(=NNc3ccc(S(N)(=O)=O)cc3)c3ccccc32)cc1 [3d]
(Q) NS(=O)(=O)c1ccc(NCC(=O)NN=C2C(=O)N(CC(=O)Nc3ccccc3Cl)c3ccccc32)cc1 [4f]
Which gives the smaller Selectivity ratio I/XII number: P or Q ? // return label of chosen record
P

---

biological target: UniProt:Q16790; test: biochemical; conditions: KI hCA II / KI hCA IX
RECORDED ENDPOINT: Selectivity ratio II/IX

// solved cases for Selectivity ratio II/IX follow
# MOLECULE, VALUE MEASURED
rows = [
    ("Cc1ccc(NC(=O)CN2C(=O)C(=NNc3ccc(S(N)(=O)=O)cc3)c3ccccc32)cc1 [3d]", 0.934),
    ("NS(=O)(=O)c1ccc(NCC(=O)NN=C2C(=O)N(CC(=O)Nc3ccc(Cl)cc3)c3ccccc32)cc1 [4b]", 1.169),
]

(1) NS(=O)(=O)c1ccc(NN=C2C(=O)N(CC(=O)Nc3ccc(Br)cc3)c3ccccc32)cc1 [3c]
(2) NS(=O)(=O)c1ccc(NC(=O)CN2C(=O)C(=O)c3ccccc32)cc1 [2h]
Lab notebook, comparison: 1 versus 2 , higher Selectivity ratio II/IX goes to which? Your answer should be the label of the entry you select.
1
(1: 0.991, 2: 0.087)
